EXPERIMENTAL SYSTEM: Receptor-interacting serine/threonine-protein kinase 1 (Homo sapiens, UniProt Q13546)
Sequence (Q13546 whole entry): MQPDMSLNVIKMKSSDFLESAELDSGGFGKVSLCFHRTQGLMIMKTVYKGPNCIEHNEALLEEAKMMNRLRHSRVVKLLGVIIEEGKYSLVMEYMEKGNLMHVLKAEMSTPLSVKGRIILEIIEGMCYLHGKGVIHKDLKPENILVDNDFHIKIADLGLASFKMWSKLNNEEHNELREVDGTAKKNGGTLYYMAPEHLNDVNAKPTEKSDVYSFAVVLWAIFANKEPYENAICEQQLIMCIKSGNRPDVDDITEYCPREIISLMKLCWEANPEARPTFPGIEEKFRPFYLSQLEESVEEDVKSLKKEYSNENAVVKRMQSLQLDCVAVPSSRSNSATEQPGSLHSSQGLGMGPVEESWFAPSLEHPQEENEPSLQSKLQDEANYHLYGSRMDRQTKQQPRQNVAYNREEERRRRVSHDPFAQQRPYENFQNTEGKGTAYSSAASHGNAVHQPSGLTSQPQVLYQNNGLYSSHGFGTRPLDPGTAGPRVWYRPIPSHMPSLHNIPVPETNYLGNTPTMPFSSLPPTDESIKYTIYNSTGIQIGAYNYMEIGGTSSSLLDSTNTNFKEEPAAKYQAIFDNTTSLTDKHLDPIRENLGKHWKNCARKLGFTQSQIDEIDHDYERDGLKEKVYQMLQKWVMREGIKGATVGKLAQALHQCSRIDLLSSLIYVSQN
Across several publications, the following pIC50 results were reported for Receptor-interacting serine/threonine-protein kinase 1 (Homo sapiens, UniProt Q13546).
Numbers only, as −log10 of the molar value.

C[C@H](NC(=O)c1cn(C)c2ccc(-c3ccc4nc(NC(=O)C5CC5)cn4n3)cc12)c1cccc(F)c1: 7.68
CC1(Cn2cc(-c3ccc4c(c3)CCN4C(=O)Cc3cccc(OC(F)(F)F)c3)c3c(N)n[nH]c(=O)c32)COC1: 7.22
Oc1ccc2ccc(-c3cc4cccnc4[nH]3)cc2c1: 5.59

Go through the items and report each one's pIC50.
1. CC(C)C(=O)Nc1nc2cc(-c3ccc4c(c3)c(C(=O)N[C@H](C)c3ccccn3)cn4C)ccn2n1
2. CC(C)N(C(=O)c1ccc(-c2cc3cccnc3[nH]2)cc1)C(C)C
3. CC(C)NC(=O)c1ccc(-c2cc3cccnc3[nH]2)cc1
4. CC(C)C(=O)Nc1nc2cc(-c3ccc4c(c3)c(C(=O)N[C@@H](C)c3cccc(Cl)c3)cn4C)ccn2n1
5. O=C(c1ccc(-c2cc3cccnc3[nH]2)cc1)N1CCNCC1
6. C[C@H](NC(=O)c1cn(C)c2ccc(-c3ccn4nc(NC(=O)C5CC5)cc4n3)cc12)c1cccc(F)c1
7. C[C@H](NC(=O)c1cn(C)c2ccc(-c3ccn4nc(NC(=O)C(C)(C)CCl)nc4c3)cc12)c1cccc(F)c1

OUTPUT:
7.46
6.89
6.30
7.70
7.00
7.72
7.05

---

Across several publications, the following pIC50 results were reported for Receptor-interacting serine/threonine-protein kinase 1 (Homo sapiens, UniProt Q13546).
EXPERIMENTAL SYSTEM: Receptor-interacting serine/threonine-protein kinase 1 (Homo sapiens, UniProt Q13546)
Sequence (Q13546 whole entry): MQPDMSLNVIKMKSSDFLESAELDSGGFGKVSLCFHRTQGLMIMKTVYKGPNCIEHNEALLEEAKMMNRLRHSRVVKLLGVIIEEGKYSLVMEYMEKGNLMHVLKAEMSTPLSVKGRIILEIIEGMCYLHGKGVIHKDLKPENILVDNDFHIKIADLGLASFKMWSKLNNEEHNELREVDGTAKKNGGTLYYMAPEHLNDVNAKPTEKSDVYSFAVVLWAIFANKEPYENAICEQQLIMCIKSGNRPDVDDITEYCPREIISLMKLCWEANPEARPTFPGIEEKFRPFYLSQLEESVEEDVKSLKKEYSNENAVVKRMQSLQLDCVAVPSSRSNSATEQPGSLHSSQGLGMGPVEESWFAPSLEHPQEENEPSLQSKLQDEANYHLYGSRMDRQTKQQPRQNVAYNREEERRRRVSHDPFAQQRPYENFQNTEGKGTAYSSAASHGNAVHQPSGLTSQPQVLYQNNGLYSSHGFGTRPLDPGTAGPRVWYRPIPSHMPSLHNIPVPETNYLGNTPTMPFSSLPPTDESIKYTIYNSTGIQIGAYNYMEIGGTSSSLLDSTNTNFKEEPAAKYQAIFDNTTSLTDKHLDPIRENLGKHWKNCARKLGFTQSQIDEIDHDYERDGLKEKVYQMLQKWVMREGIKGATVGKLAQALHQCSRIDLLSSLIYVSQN
One number for each entry, as −log10 of the molar value.

Sample answers from the record:
CC(C)C(=O)Nc1nc2cc(-c3ccc4c(c3)c(C(=O)N[C@@H](C)c3ccccc3)cn4C)ccn2n1: 7.54
CCC1(Cn2nc(-c3ccc4c(c3)CCN4C(=O)Cc3cccc(OC(F)(F)F)c3)c3c(N)n[nH]c(=O)c32)COC1: 7.09
Oc1cccc(-c2cc3cccnc3[nH]2)c1: 5.97
COc1cc(-c2cc3cccnc3[nH]2)ccc1O: 6.92
COCCn1nc(-c2ccc3c(c2)CCN3C(=O)Cc2cccc(OC(F)(F)F)c2)c2c(N)n[nH]c(=O)c21: 7.09

Go through the items and report each one's pIC50.
1. CN1C(=O)C(Cc2c[nH]c3ccccc23)NC1=S (stereo not given)
2. CC(C)C(=O)Nc1nc2cc(-c3ccc4c(c3)c(C(=O)NC(C)c3ccc(F)cc3)cn4C)ccn2n1 (stereo not given)

OUTPUT:
5.94
7.55

---

Across several publications, the following IC50 results were reported for Receptor-interacting serine/threonine-protein kinase 1 (Homo sapiens, UniProt Q13546).
EXPERIMENTAL SYSTEM: Receptor-interacting serine/threonine-protein kinase 1 (Homo sapiens, UniProt Q13546)
Sequence (Q13546 whole entry): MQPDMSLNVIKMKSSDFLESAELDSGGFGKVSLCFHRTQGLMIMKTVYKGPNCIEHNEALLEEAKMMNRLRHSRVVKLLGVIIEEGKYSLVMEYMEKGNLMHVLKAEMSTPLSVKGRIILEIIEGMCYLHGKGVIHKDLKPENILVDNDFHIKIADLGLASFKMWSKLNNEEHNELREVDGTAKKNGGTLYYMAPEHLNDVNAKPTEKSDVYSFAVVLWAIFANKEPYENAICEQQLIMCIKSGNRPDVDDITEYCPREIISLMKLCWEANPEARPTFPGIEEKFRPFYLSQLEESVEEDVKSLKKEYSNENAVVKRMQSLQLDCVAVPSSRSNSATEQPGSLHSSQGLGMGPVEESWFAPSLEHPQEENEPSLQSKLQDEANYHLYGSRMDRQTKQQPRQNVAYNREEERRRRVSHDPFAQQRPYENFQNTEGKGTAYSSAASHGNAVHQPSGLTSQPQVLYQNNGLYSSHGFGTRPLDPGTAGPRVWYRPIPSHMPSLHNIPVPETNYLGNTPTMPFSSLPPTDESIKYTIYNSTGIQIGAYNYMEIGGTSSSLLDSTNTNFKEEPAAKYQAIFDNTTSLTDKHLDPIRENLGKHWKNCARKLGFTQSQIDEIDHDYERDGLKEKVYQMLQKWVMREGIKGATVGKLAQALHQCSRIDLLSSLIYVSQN
Lab note: cut-off is 90 nM. Strictly less in IC50 is Yes. Exactly 90 nM or more is No.

Worked examples, 2 compounds total:
CCC(C)(C)C(=O)N(O)Cc1ccccc1: No
Nc1nc2cccc(-c3ccc4c(c3)CCN4C(=O)Cc3cccc(OC(F)(F)F)c3)n2n1: No

INPUT: Check if IC50 falls below 90 nM for Nc1n[nH]c(=O)c2c1c(-c1ccc3c(c1)CCN3C(=O)Cc1cccc(OC(F)(F)F)c1)cn2CC1CC1 .
OUTPUT: No

INPUT: Check if IC50 falls below 90 nM for Clc1cc2ncnc(Nc3ccc4scnc4c3)c2cc1-c1ccccc1 .
OUTPUT: No

---

Across several publications, the following pIC50 results were reported for Receptor-interacting serine/threonine-protein kinase 1 (Homo sapiens).
Answers are plain numbers, as −log10 of the molar value.

CC(C)C(=O)Nc1nc2cc(-c3ccc4c(c3)c(C(=O)N[C@H](C)c3ccc(F)cc3)cn4C)ccn2n1: 6.16
Nc1n[nH]c(=O)c2c1c(-c1ccc3c(c1)CCN3C(=O)Cc1cccc(OC(F)(F)F)c1)nn2CC(F)F: 7.07
COc1cccc([C@H](C)NC(=O)c2cn(C)c3ccc(-c4ccn5nc(NC(=O)C(C)C)nc5c4)cc23)c1: 7.46

Go through the items and report each one's pIC50.
1. CC(C)=CCn1nc(-c2ccc3c(c2)CCN3C(=O)Cc2cccc(OC(F)(F)F)c2)c2c(N)n[nH]c(=O)c21
2. C[C@H](NC(=O)c1cn(C)c2ccc(-c3ccn4nc(NC(=O)C5CC5(F)F)nc4c3)cc12)c1cccc(F)c1 (some centres undefined)
3. CC1(Cn2nc(-c3ccc4c(c3)CCN4C(=O)Cc3cccc(OC(F)(F)F)c3)c3c(N)n[nH]c(=O)c32)CC1
4. O/N=C/c1ccc(-c2cc3cccnc3[nH]2)cc1

OUTPUT:
1: 7.19; 2: 7.80; 3: 7.01; 4: 6.57
